- assayTarget: RSV F protein of subtype A (strain A2) on recombinant mKate-RSV virus (Respiratory syncytial virus subtype A …, UniProt P03420 26-574)
- testMethodNotes: cell-based or functional assay
Measured Neut IC50 (µg/ml) subtype A, listed per entry for reference.

[
  {
    "binder": "ADI-18976 (antibody, V domains shown, full-length IgG from yeast) VH: EVQLVETGPGLVKPSETLSLTCTVSGDSISGYYWSWIRQSPGKGLEWIGYIYYRGSTDYNPSLKSRVTISVDTSKNQFSLKLSSVTAADTAVYYCARDNKHHDSGNYYAYFDHWGQGTLVTVSS VL: DIVMTQSPSSLSASVGDRVTITCRASQNINTFLNWYQHKPGKAPKLLIYGASRLQSGVPSRFTGSGSGTDFTLTISSLQPEDFATYSCQQSYTTRLTFGGGTKVEIK",
    "unitOfMeasure": "µg/mL",
    "Neut IC50 (µg/ml) subtype A": 6.29
  },
  {
    "binder": "ADI-18882 (antibody, V domains shown, full-length IgG from yeast) VH: QVQLVQSGAEVKKPGSSVRVSCKASGGTFRGYGLSWVRQAPGQGLEWMGGITHLFGTVSYAPKFQGRLTITADASTGTAYMELSSLISEDTAVYFCARDAYEVWTGSYLPPFDYWGQGTMVTVSS VL: DIVMTQSPGTLSLSPGERVTLSCRASQIIPSSYLAWYQQKPGQAPRLLIYGAFTRATDIPDRFSGSGSGTDFTLTISRLEPEDFAVYYCQQYGSSFLTFGGGTKVEIK",
    "unitOfMeasure": "µg/mL",
    "Neut IC50 (µg/ml) subtype A": 0.041
  },
  {
    "binder": "ADI-18891 (antibody, V domains shown, full-length IgG from yeast; also called Antibody Number 246; Ab # 246) VH: QVQLQESGAEVKKPGSSVKVSCKASGGAFSSYAISWVRQAPGQGLEWLGGITHLFGTVSYAPKFQGRVTITADASTGTLYMVLNSLKPEDTAIYYCARDAYEVWTGSYLPPFDYWGQGTLVTVSS VL: EIVLTQSPGTLSLSPGERATLSCRASQTVTSNYLAWYQQKPGQAPRLLIYDALTRATGIPDRFSGSGSGTDFTLTISRLEPEDFALYYCQQYGSSFLTFGGGTKLEIK",
    "unitOfMeasure": "µg/mL",
    "Neut IC50 (µg/ml) subtype A": 0.012
  }
]
